Just for reference, patent US11014895B2 is where these values come from.

Collected IC50 values appear next to each entry.
molecular target: IDO1 enzyme (Homo sapiens, UniProt P14902); assay: Determination of biochemical activity of IDO1 enzyme (absorbance at 320 nm); settings: room temperature, 3 hours
Sequence (P14902 whole entry): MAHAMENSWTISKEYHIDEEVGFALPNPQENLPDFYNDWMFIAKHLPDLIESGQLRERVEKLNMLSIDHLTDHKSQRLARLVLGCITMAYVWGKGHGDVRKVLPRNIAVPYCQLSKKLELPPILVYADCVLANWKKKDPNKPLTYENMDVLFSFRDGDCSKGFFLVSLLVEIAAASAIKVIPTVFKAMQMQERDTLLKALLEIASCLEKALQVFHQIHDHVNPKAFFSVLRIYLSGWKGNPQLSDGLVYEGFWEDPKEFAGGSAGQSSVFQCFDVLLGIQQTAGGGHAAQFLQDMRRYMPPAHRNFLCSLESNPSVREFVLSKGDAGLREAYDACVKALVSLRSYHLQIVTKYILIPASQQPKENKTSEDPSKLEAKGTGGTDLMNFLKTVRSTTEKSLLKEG

compound: COc1ccc(NC(=N)Nc2cocc2/C(=N/O)Nc2ccc(F)c(Br)c2)cc1
IC50: 0.1 to 1 µM

compound: O=C(Nc1cocc1/C(=N/O)Nc1ccc(F)c(Br)c1)NC1CCCC1
IC50: 0.1 to 1 µM

compound: O=C(Nc1ccoc1)Nc1cocc1/C(=N/O)Nc1ccc(F)c(Br)c1
IC50: > 1 µM

compound: O=C(Nc1conc1/C(=N/O)Nc1ccc(F)c(Br)c1)NC1CCCCC1
IC50: 0.1 to 1 µM

compound: NCCNC(=O)Nc1nocc1/C(=N/O)Nc1ccc(F)c(Br)c1
IC50: < 0.001 µM

compound: O=C(Nc1ccoc1)Nc1nonc1/C(=N/O)Nc1ccc(F)c(Br)c1
IC50: 0.1 to 1 µM

compound: NCCNC(=O)Nc1nonc1/C(=N/O)Nc1ccc(F)c(Br)c1
IC50: 0.1 to 1 µM

compound: O=C(Nc1conc1/C(=N/O)Nc1ccc(F)c(Br)c1)NC1CC1
IC50: > 1 µM

compound: O=C(Nc1nonc1/C(=N/O)Nc1ccc(F)c(Br)c1)NC1CC1
IC50: 0.1 to 1 µM

compound: NC1CCC(NC(=S)Nc2nonc2/C(=N/O)Nc2ccc(F)c(Br)c2)CC1 (stereo not shown)
IC50: 0.1 to 1 µM

====

Here the recorded IC50 is given for each entry.
biological target: IDO1 enzyme (Homo sapiens); experiment: Determination of biochemical activity of IDO1 enzyme (absorbance at 320 nm); settings: room temperature, 3 hours

compound: O=C(Nc1ccc(C(F)(F)F)cc1)Nc1nonc1/C(=N/O)Nc1ccc(F)c(Br)c1
IC50: > 1 µM
--
compound: NS(=O)(=O)NCCCNC(=O)Nc1nonc1/C(=N/O)Nc1ccc(F)c(Br)c1
IC50: < 0.001 µM
--
compound: N=C(Nc1cocc1/C(=N/O)Nc1ccc(F)c(Br)c1)NC1CCCCC1
IC50: 0.1 to 1 µM
--
compound: O=C(Nc1cc[nH]c1)Nc1nonc1/C(=N/O)Nc1ccc(F)c(Br)c1
IC50: 0.1 to 1 µM
--
compound: NS(=O)(=O)NCCNC(=O)Nc1nonc1/C(=N/O)Nc1ccc(F)c(Cl)c1
IC50: < 0.001 µM
--
compound: O=C(Nc1nonc1/C(=N/O)Nc1ccc(F)c(Br)c1)Nc1cccc2cc[nH]c12
IC50: 0.1 to 1 µM
--
compound: COc1ccc(NC(=O)Nc2nonc2/C(=N/O)Nc2ccc(F)c(Br)c2)c(F)c1
IC50: 0.1 to 1 µM
--
compound: CC1CCC(NC(=O)Nc2nonc2/C(=N/O)Nc2ccc(F)c(Br)c2)CC1 (stereo not drawn)
IC50: > 1 µM
--
compound: CS(=O)(=O)N1CCN(C(=O)Nc2nonc2/C(=N/O)Nc2ccc(F)c(Br)c2)CC1
IC50: 0.1 to 1 µM
--
compound: O=C(Nc1ccsc1)Nc1cocc1/C(=N/O)Nc1ccc(F)c(Br)c1
IC50: > 1 µM
--
compound: N=C(NCCN)Nc1nonc1/C(=N/O)Nc1ccc(F)c(Br)c1
IC50: < 0.001 µM
--
compound: COc1ccc(NC(=N)Nc2conc2/C(=N/O)Nc2ccc(F)c(Cl)c2)cc1
IC50: 0.1 to 1 µM
--
compound: Cc1ccc(NC(=O)Nc2nonc2/C(=N/O)Nc2ccc(F)c(Br)c2)cc1
IC50: > 1 µM
--
compound: Nc1ccc(NC(=O)Nc2nonc2/C(=N/O)Nc2ccc(F)c(Cl)c2)cc1
IC50: < 0.001 µM
--
compound: NS(=O)(=O)N1CCC(NC(=O)Nc2nonc2/C(=N/O)Nc2ccc(F)c(Br)c2)CC1
IC50: < 0.001 µM
--
compound: O=C(Nc1cccnc1)Nc1nocc1/C(=N/O)Nc1ccc(F)c(Br)c1
IC50: 0.1 to 1 µM
--
compound: O=C(Nc1ccc(O)cc1)Nc1nonc1/C(=N/O)Nc1ccc(F)c(Cl)c1
IC50: < 0.001 µM
--
compound: O=C(Nc1cocc1/C(=N/O)Nc1ccc(F)c(Br)c1)NC1CC1
IC50: 0.1 to 1 µM

====

target: UniProtKB P14902; assay: Determination of biochemical activity of IDO1 enzyme (absorbance at 320 nm); conditions: room temperature, 3 hours

compound: COc1ccc(NC(=S)Nc2nonc2/C(=N/O)Nc2ccc(F)c(Br)c2)cc1
IC50: 0.1 to 1 µM

compound: NC1CCC(NC(=O)Nc2nonc2/C(=N/O)Nc2ccc(F)c(Cl)c2)CC1 (stereo not shown)
IC50: < 0.001 µM

compound: COc1ccc(NC(=O)Nc2nonc2/C(=N/O)Nc2ccc(F)c(Cl)c2)cc1
IC50: 0.1 to 1 µM

compound: O=C(Nc1nocc1/C(=N/O)Nc1ccc(F)c(Br)c1)NC1CC1
IC50: > 1 µM
